tested on: SF-539 CNS; test: NCI-60 one-dose screen, 48 h (100 = growth as untreated, 0 = no growth, -100 = all killed); settings: 10 µM unless noted
The panel holds about 83,000 compounds, 20% with a hit somewhere; the sample as a whole holds those more often.
recordedMetric: growth (%)
Write the number in % without appending the unit.

Let me check: `COc1ccc(OC)c(/C=C2\COc3ccc(O)cc3C2=O)c1` , system SF-539 CNS, measured growth is 90.5

Result for `COc1ccc(-c2cncnc2N)cc1OC` , tested on SF-539 CNS, growth: 107

growth on SF-539 CNS for `CCCCN1CCN(c2ccc3nc(-c4ccc5nc(-c6ccc(OCC)c(OCC)c6)[nH]c5c4)[nH]c3c2)CC1` is -93.7

I looked up `CCN(CC)N=Nc1nn(C(=O)Nc2ccc(Cc3ccccc3)cc2)c2ccc(Cl)cc12` and its growth for SF-539 CNS was 77.7

Result for `C=C(C=O)[C@@H]1CC=C(C=O)CC1` , tested on SF-539 CNS, growth: -60.4

Reported SF-539 CNS growth for item `[2H]c1nc(Nc2ncc(F)c(-c3cc(F)c4nc(C)n(C(C)C)c4c3)n2)c([2H])c([2H])c1CN1CCN(C([2H])([2H])C([2H])([2H])[2H])CC1` was 72.1

The value of growth recorded for `COc1cc2c(=O)n(CCCn3ccnc3)c3c4cc5c(cc4ccc3c2cc1OC)OCO5` when tested on SF-539 CNS reads -20.2
